experimental target: CFTR (Homo sapiens, UniProt P13569, DEL508-508)
Construct: endogenous in cells; host or cells: primary human bronchial epithelial cells from CF subjects (F508del/MF-HBE), differentiated at air-liquid interface
Sequence (P13569 with tags, fused parts or gaps DEL508-508): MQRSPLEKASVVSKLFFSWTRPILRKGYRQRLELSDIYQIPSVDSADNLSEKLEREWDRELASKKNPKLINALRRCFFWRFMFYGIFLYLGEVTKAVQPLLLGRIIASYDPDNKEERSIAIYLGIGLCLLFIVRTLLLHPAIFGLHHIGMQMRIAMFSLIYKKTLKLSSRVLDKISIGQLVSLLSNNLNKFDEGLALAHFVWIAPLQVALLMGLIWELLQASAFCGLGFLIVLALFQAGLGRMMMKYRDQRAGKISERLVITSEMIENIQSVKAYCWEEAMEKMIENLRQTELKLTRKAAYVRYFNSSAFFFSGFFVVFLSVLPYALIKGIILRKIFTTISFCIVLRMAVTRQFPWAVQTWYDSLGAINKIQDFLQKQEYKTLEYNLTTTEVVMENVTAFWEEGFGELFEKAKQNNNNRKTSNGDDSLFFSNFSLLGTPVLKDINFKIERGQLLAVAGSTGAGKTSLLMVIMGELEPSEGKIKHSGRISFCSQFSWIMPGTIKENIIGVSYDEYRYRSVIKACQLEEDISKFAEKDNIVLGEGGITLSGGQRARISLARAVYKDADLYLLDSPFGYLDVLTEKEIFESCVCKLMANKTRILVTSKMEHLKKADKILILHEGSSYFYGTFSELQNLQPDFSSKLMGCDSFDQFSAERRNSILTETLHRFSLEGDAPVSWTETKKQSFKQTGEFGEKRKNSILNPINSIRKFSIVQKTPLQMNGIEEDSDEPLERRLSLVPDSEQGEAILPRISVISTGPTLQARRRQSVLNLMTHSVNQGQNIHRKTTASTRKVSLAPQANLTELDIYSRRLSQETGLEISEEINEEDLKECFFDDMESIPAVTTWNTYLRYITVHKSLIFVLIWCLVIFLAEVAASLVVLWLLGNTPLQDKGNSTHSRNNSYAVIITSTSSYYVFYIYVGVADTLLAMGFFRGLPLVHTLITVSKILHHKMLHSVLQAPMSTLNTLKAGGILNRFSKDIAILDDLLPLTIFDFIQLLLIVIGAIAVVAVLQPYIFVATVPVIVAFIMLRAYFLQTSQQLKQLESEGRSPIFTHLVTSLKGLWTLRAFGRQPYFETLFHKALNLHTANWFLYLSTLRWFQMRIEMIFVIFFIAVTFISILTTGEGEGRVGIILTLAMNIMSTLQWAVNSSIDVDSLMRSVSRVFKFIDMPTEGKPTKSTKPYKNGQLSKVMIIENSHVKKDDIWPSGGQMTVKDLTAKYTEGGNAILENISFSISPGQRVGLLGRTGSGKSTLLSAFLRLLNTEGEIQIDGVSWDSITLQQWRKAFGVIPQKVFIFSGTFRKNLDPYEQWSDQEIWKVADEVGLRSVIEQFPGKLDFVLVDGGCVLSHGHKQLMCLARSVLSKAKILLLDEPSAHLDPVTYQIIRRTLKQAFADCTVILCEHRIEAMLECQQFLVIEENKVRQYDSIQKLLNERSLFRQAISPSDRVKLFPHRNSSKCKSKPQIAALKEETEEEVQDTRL
method summary: HBE assay: Ussing chamber assay of CFTR-mediated short-circuit currents
Type: cell-based
condition: Table 12; at 10 μM; read-out: HBE Activity at 10 μM (%)
Kindly state activation at 10 µM for each of the entries shown.

Problem: Return activation at 10 µM for the following compound: Cc1cccc(C)c1-c1cc2nc(n1)NS(=O)(=O)c1cccc(c1)C(=O)N(Cc1nc3ccccn3c1C)[C@H](CC(C)(C)C)CO2 [Compound 700]
Result: > 600%

Problem: Return activation at 10 µM for the following compound: Cc1cccc(C)c1-c1cc2nc(n1)NS(=O)(=O)c1cccc(c1)C(=O)N(CC(=O)NCC1CCCC1)[C@H](CC(C)(C)C)CO2 [Compound 228]
Result: 30 to 60%

Problem: Return activation at 10 µM for the following compound: Cc1cccc(C)c1-c1cc2nc(n1)NS(=O)(=O)c1cccc(c1)C(=O)N(Cc1cc3n(n1)CCC3)[C@H](CC(C)(C)C)CO2 [Compound 455]
Result: > 600%

Problem: Return activation at 10 µM for the following compound: Cc1cccc(C)c1-c1cc(O)nc(NS(=O)(=O)c2cccc(C(=O)N(Cc3cccc(N4CCC[C@]4(C)C(=O)O)n3)[C@@H](C)CC(C)(C)C)c2)n1 [Compound 277]
Result: > 600%

Problem: Return activation at 10 µM for the following compound: Cc1cccc(C)c1-c1cc2nc(n1)NS(=O)(=O)c1cccc(c1)C(=O)N(Cc1cnc(N3CCOCC3)s1)[C@H](CC(C)(C)C)CO2 [Compound 693]
Result: 30 to 60%

Problem: Return activation at 10 µM for the following compound: Cc1cccc(C)c1-c1cc2nc(n1)NS(=O)(=O)c1cccc(c1)C(=O)N(Cc1ncc(N3CCC(C)(C)C3)cn1)[C@H](C(C)C)CO2 [Compound 695]
Result: > 600%

Problem: Return activation at 10 µM for the following compound: Cc1cccc(C)c1-c1cc2nc(n1)NS(=O)(=O)c1cccc(c1)C(=O)N(Cc1cccc(N3CC(C(C)(C)C)CC3(C)C)n1)[C@H](CC(C)(C)C)CO2 (stereo partly drawn) [Compound 877]
Result: > 600%

Problem: Return activation at 10 µM for the following compound: Cc1cccc(C(C)C)c1-c1cc2nc(n1)NS(=O)(=O)c1cccc(c1)C(=O)N(Cc1ncc(OC(C)C)cn1)[C@H](CC(C)C)CO2 [Compound 241]
Result: > 600%

Problem: Return activation at 10 µM for the following compound: Cc1cccc(C)c1-c1cc2nc(n1)NS(=O)(=O)c1cccc(c1)C(=O)N(Cc1ccc(C3CCCCC3)nn1)[C@H](CC(C)(C)C)CO2 [Compound 233]
Result: > 600%
